assay-system: Human M4 (Homo sapiens)
Sequence (P08173 whole entry): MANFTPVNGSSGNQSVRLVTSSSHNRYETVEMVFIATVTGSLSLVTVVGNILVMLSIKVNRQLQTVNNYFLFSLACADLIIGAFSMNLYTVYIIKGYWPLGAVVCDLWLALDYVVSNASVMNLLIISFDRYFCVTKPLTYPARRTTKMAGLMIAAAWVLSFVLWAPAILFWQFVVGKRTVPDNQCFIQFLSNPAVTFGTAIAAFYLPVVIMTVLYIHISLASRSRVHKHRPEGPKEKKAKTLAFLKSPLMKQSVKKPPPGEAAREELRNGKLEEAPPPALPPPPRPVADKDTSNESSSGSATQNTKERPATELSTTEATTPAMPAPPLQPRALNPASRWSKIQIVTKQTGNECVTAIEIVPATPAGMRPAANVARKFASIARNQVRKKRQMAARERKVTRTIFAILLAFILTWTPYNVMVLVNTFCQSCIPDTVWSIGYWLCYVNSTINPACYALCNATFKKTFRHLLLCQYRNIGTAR
procedure-summary: mAChR M4 cell-based functional assay (calcium flux, Fluo-4, M4/Gqi5/CHO-K1 cells)
Description: Human or rat M4 cDNA, along with the chimeric G protein Gqi5, were transfected into Chinese hamster ovary (CHO-K1) cells purchased from the American Type Culture Collection using Lipofectamine2000. […] Calcium flux was measured using the Functional Drug Screening System (FDSS) 6000 or 7000 (Hamamatsu Corporation, Tokyo, Japan) as an increase in the fluorescent static ratio. […] Agonist activity was analyzed as a concentration-dependent increase in calcium mobilization upon compound addition. […]
property-label: pIC50
Numbers only, as −log10 of the molar value.

Report pIC50 for each item below.
1. Fc1ccccc1-c1nnc(N[C@H]2C[C@@H]3CN(CC4CCOCC4)C[C@@H]3C2)c2c1CCCC2
2. Fc1ccc(F)c(-c2nnc(N[C@H]3C[C@@H]4CN(CC5CCOCC5)C[C@@H]4C3)c3sccc23)c1
3. Cn1cc2cc(-c3nnc(N[C@H]4C[C@@H]5CN(CC6CCOCC6)C[C@@H]5C4)c4sccc34)ccc2n1
4. Cn1cc2cc(-c3nnc(N[C@H]4C[C@@H]5CN(CC6CCOCC6)C[C@@H]5C4)c4ccsc34)ccc2n1

// result
1: 8.21; 2: 8.20; 3: 9.16; 4: 8.53

Report pIC50 for each item below.
1. Cc1ccc(F)cc1-c1nnc(N[C@H]2C[C@@H]3CN(CC4CCOCC4)C[C@@H]3C2)c2sccc12
2. COc1ccccc1-c1nnc(N[C@H]2C[C@@H]3CN(CC4CCOCC4)C[C@@H]3C2)c2ccsc12
3. Fc1ccc(F)c(-c2nnc(N[C@H]3C[C@@H]4CN(CC5CCOCC5)C[C@@H]4C3)c3ccsc23)c1

// result
1: 8.80; 2: 5.09; 3: 8.54
